- PROTOCOL TEXT: Quantitative High-Throughput drug screen in 47 multiple myeloma cell lines against the NCATS MIPE library collection: PCM6_Riken cell viability assay (AID 1919870); further: nearly all actives have a fitted effect of over 30% in size
- EXPERIMENTAL CONDITIONS: CellTiter-Glo ATP, 48 h; series mostly up to 45.8 µM
Records with an inconclusive call do not appear. The source made the active and inactive calls. The call rests on the fitted dose curve; in most records, active means well fitted cell-killing curve with a large enough effect; inconclusive means small, poorly fitted or top-dose-only effect, or effect the other way; inactive means no such curve, though single readings can be large or run the other way.
Outcomes: 1 (active), -1 (inactive)

INSERT INTO assay_data (molecule, assigned_class) VALUES
  ('O=C(C=Cc1cccnc1)NCCCCC1CCN(C(=O)c2ccccc2)CC1', 1),
  ('COc1cc(C)c(Sc2cnc(NC(=O)c3ccc(CNC(C)C(C)C)cc3)s2)cc1C(=O)N1CCN(C(C)=O)CC1 (centres undefined)', 1),
  ('Cn1c2cc(S(C)=O)sc2c2cnn(Cc3cccc(N)c3)c(=O)c21 (centres undefined)', -1),
  ('COc1cc(C(=O)NS(=O)(=O)c2ccccc2C)ccc1Cc1cn(C)c2ccc(NC(=O)OC3CCCC3)cc12', 1),
  ('COC(=O)Nc1nc2ccc(C(=O)c3ccc(F)cc3)cc2[nH]1', 1),
  ('CC(C)c1cc(-c2n[nH]c(=O)n2-c2ccc3c(ccn3C)c2)c(O)cc1O', 1),
  ('COc1cccc2c(NCc3ccccc3)nc(-n3c(N)nc4ccccc43)nc12', 1),
  ('Cn1c2ccccc2c2c3c(c4c5ccccc5n(CCC#N)c4c21)CNC3=O', 1),
  ('CC(=O)Nc1sc2c(c1-c1nc3ccccc3s1)CNC2', 1),
  ('CN1c2cc(O)c(N=NC(N)=O)cc2CC1S(=O)(=O)O (centres undefined)', -1),
  ('CN1CCN(c2cc(C(=O)Nc3ccc4c(c3)-c3c(c(C(N)=O)nn3-c3ccc(F)cc3)CC4)c(Cl)cn2)CC1', 1),
  ('CCC(=C(c1ccccc1)c1ccc(OCCN(C)C)cc1)c1ccccc1', 1),
  ('COc1cccc(-c2ccc(NC(=O)C3=C(C(=O)O)CCC3)c(F)c2)c1', 1),
  ('CCNC(=O)Nc1ccc2ncc(Nc3ccc(C)cc3)nc2n1', 1),
  ('CC(C)c1ccccc1Cc1cc(C(=O)Nc2ccc(S(=O)(=O)c3ccccc3C(C)(C)C)cc2)c(O)c(O)c1O', 1),
  ('O=C(NC1CCNCC1)c1[nH]ncc1NC(=O)c1c(Cl)cccc1Cl', 1),
  ('CC(=O)c1c(C)c2cnc(Nc3ccc(N4CCNCC4)cn3)nc2n(C2CCCC2)c1=O', 1),
  ('CC(C)(C)c1cc(NC(=O)Nc2ccc(-c3cn4c(n3)sc3cc(OCCN5CCOCC5)ccc34)cc2)no1', -1),
  ('Nc1cc(C(F)(F)F)c(-c2cc(N3CCOCC3)nc(N3CCOCC3)n2)cn1', 1),
  ('C=C1C(=CC=C2CCC[C@]3(C)[C@@H]([C@H](C)C=C[C@H](C)C(C)C)CC[C@@H]23)C[C@@H](O)C[C@@H]1O', 1),
  ('CC1(C)OC2=C(C(=O)c3ccccc3C2=O)[C@H](NCc2ccccc2)[C@H]1O', 1),
  ('c1cc(-c2cnn3cc(-c4ccc(OCCN5CCCCC5)cc4)cnc23)ccn1', 1),
  ('COc1cc2nccc(Oc3ccc(NC(=O)C4(C(=O)Nc5ccc(F)cc5)CC4)cc3)c2cc1OC', 1),
  ('O=c1[nH]nc(Sc2ncc([N+](=O)[O-])s2)n1-c1ccc2c(c1)OCCO2', 1),
  ('Cc1cc(C(=O)N2CCN(c3cccc(Cl)c3)CC2)n(-c2ccccc2)n1', 1),
  ('C=CC(=O)Nc1cccc(Oc2nc(Nc3ccc(N4CCN(C)CC4)cc3OC)ncc2Cl)c1', 1),
  ('CCN1CCN(CC(=O)Nc2ccc(-c3cccc4c(=O)cc(N5CCOCC5)oc34)c3sc4ccccc4c23)CC1', 1),
  ('CN(c1ncccc1CNc1nc(Nc2ccc3c(c2)CC(=O)N3)ncc1C(F)(F)F)S(C)(=O)=O', 1),
  ('O=C(Nc1ncc(-c2cc(C(F)F)nn2-c2c(Cl)cccc2Cl)s1)C1CC1', 1),
  ('CC[C@@]1(O)C(=O)OCc2c1cc1n(c2=O)Cc2cc3cc(O)ccc3nc2-1', 1),
  ('NCC(=O)Nc1ccc(-n2nc(C(F)(F)F)cc2-c2ccc3c(ccc4ccccc43)c2)cc1', 1),
  ('COc1c(N2C[C@@H]3CCCN[C@H]3C2)c(F)cc2c(=O)c(C(=O)O)cn(C3CC3)c12', -1),
  ('COC(=O)C1=C(C)NC(C)=C(C(=O)OCCN2CCN(C(c3ccccc3)c3ccccc3)CC2)C1c1cccc([N+](=O)[O-])c1 (centres undefined)', -1),
  ('CNC(=O)c1cc(Oc2ccc(NC(=O)Nc3cc(C(C)(C)C)nn3-c3ccc4ncccc4c3)c(F)c2)ccn1', 1);
